Reported Minus NSB* values for a set of compounds
Molecular target: mu opiate receptor (Rattus norvegicus)
Construct: from tissue; host or cells: rat brain membranes/homogenate
Sequence (P33535 whole entry): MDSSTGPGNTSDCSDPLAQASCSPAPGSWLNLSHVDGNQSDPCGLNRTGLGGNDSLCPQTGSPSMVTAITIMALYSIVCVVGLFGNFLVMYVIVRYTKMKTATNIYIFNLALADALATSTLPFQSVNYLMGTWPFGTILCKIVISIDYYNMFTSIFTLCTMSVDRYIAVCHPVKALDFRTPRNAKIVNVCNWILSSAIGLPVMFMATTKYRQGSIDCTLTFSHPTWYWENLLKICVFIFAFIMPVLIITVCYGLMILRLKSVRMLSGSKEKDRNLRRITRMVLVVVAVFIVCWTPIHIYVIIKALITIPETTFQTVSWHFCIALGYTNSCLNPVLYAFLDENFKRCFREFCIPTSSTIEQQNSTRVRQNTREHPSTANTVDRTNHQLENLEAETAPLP
Assay: Inhibition of [3H]DAMGO binding to the mu opiate receptor in rat brain homogenates
Conditions: mean minus non-specific binding; 0.08 mg of compound per milliliter, 7 nM 3H-labeled DAMGO, rat brain membranes
Form field (numeric): enter value without unit.

Some compounds with known Minus NSB* results, for comparison:
compound="CC(C)c1nc(CC2CCCCC2)n2c1NC(=O)C2C(C)C (stereo not shown)" assayreadout="Minus NSB*" datavalue=569.80
compound="Cc1nc(Cc2ccc(O)cc2)c2n1C(C(C)C)C(=O)N2 (stereo not shown) [Pool 48]" assayreadout="Minus NSB*" datavalue=420.50
compound="CCC(C)C1C(=O)Nc2c(C(C)C)nc(C)n21 (stereo not shown) [Pool 5]" assayreadout="Minus NSB*" datavalue=744.80
compound="CC(C)c1nc(CCCc2ccccc2)n2c1NC(=O)C2C(C)C (racemic)" assayreadout="Minus NSB*" datavalue=408.30

# query: Minus NSB* of entry Cc1nc(C(C)C)c2n1C(CC(C)C)C(=O)N2 (stereo not shown) [Pool 4]
672.10

Give its Minus NSB* value. Item: Cc1nc(C(C)C)c2n1C(C(C)C)C(=O)N2 (stereo not shown) [Pool 142]
638.05

Consider the compound CCC(C)c1nc(C(C)C)c2n1C(C(C)C)C(=O)N2 (mixture of isomers) and give its measured Minus NSB*.
593.85

Given CSCCc1nc(C)n2c1NC(=O)C2C(C)C (racemic) , state its recorded Minus NSB*.
566.75

Would you kindly share the measured Minus NSB* for CCCCc1nc(C)n2c1NC(=O)C2C(C)C (stereo not shown) [Pool 44] ?
639.55

Please look up its Minus NSB*: CC(C)c1nc(Cc2cccc(C(F)(F)F)c2)n2c1NC(=O)C2C(C)C (racemic)
659.25

Any idea what Minus NSB* was measured for CCC(C)c1nc(C)n2c1NC(=O)C2C(C)C (stereo not shown) [Pool 54] ?
507.20

Item under review: CC(C)c1nc(C2(c3ccccc3)CC2)n2c1NC(=O)C2C(C)C (racemic) . Reported Minus NSB*?
522.00

Tell me the measured Minus NSB* of Cc1nc(C(C)C)c2n1C(C(C)C)C(=O)N2 (stereo not shown) [Pool 36] , please.
632.60

State the recorded Minus NSB* for this entry: CC(C)c1nc(Cc2ccc(Br)cc2)n2c1NC(=O)C2C(C)C (racemic)
374.95

Record request: Minus NSB* value, item CCCc1nc(C)n2c1NC(=O)C2C(C)C (stereo not shown) [Pool 45]
594.55

# get_value(readout='Minus NSB*', item= CCC(C)Cc1nc(C(C)C)c2n1C(C(C)C)C(=O)N2 (stereo not shown) )
610.70
